# Experimental system: T1, mouse MAdCAM expressed on cells (mouse, UniProt Q61826 22-405)
# T1 construct: whole, on cells
# T1 sequence (looked up): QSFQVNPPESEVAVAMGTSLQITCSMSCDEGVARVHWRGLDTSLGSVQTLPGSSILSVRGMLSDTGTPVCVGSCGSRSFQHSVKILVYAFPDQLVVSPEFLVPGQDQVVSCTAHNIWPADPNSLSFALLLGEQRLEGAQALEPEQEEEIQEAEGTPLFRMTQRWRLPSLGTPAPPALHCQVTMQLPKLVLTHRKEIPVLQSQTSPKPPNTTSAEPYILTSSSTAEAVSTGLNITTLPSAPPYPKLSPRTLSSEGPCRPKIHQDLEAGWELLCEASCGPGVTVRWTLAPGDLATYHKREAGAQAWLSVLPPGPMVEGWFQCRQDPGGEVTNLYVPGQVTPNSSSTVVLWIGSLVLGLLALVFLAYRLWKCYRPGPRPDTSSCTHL
# Method notes: cell binding
Assay metric: binding result

// known answers, use as guide
MAdCAM Antibody Table 2 clone 68 (antibody, V domains shown, IgG format) VH: EVQLLESGGGLVQPGGSLRLSCAASGFTFGDYAMSWVRQAPGKGLEWVAVVSYDGTNKYYADSVKGRFTISRDNSKNTLYLQMNSLRAEDTAVYYCAKDICSSTSCYFDLWGRGTLVTVSS VL: DIQMTQSPSSLSASVGDRVTITCRASQNINNYVNWYQQKPGKAPKLLIYDASNLETGVPSRFSGSGSGTDFTLTISSLQPEDFATYYCQQANSFPPTFGQGTRLEIK	no binding
MAdCAM Antibody Table 2 clone 55 (antibody, V domains shown, IgG format) VH: EVQLLESGGGLVQPGGSLRLSCAASGFTFDDFAMHWVRQAPGKGLEWVSGISGNGDSRYYADSVKGRFTISRDNSKNTLYLQMNSLRAEDTAVYYCARDASYGGNYGMDVWGQGTTVTVSS VL: DIQMTQSPSSLSASVGDRVTITCQASQDIRNYLNWYQQKPGKAPKLLIYKASTLESGVPSRFSGSGSGTDFTLTISSLQPEDFATYYCQQANSFPLTFGPGTKVDIK	no binding
MAdCAM Antibody Table 2 clone 77 (antibody, V domains shown, IgG format) VH: EVQLLESGGGLVQPGGSLRLSCAASEFTFSNAWMSWVRQAPGKGLEWVASISSTSAYIDYADSVKGRFTISRDNSKNTLYLQMNSLRAEDTAVYYCAREVVGATTFDYWGQGTLVTVSS VL: DIQMTQSPSSLSASVGDRVTITCRASQSISTWLAWYQQKPGKAPKLLIYAASSLQSGVPSRFSGSGSGTDFTLTISSLQPEDFATYYCQQANAFPPTFGQGTRLEIK	binds
MAdCAM Antibody Table 2 clone 15 (antibody, V domains shown, IgG format) VH: QVQLVQSGAEVKKPGASVKVSCKASGYTFTGYYMHWVRQAPGQGLEWMGWIGPNSGDTNYAQKFQGRVTMTRDTSTSTVYMELSSLRSEDTAVYYCARDLDHNWYFDLWGRGTLVTVSS VL: DIVMTQSPLSLPVTPGEPASISCRSSQSLLHSNGYNYLDWYLQKPGQSPQLLIYSSSNRAPGVPDRFSGSGSGTDFTLKISRVEAEDVGVYYCMQALHIPLTFGGGTKVEIK	no binding

Proceed to the following item.
Prompt: # lookup: binding result of MAdCAM Antibody Table 2 clone 18 (antibody, V domains shown, IgG format) VH: QVQLVQSGAEVKKPGSSVKVSCKASGYTFTNYYMHWVRQAPGQGLEWMGGIIPIVDRVKYAQKFQGRVTITADESTSTAYMELSSLRSEDTAVYYCAKGRYTVNYYYGMDVWGQGTTVTVSS VL: DIQMTQSPSSLSASVGDRVTITCQANQDISNYLNWYQQKPGKAPKLLIYRASKLEAGVPSRFSGSGSGTDFTLTISSLQPEDFATYYCQQSSEIPYSFGQGTKLEIK
Completion: no binding
